Provide the recorded melting point for the entries that follow.

Complete the entry with melting point for O=C(OCc1cc(OCCCBr)cc(OCCCBr)c1)c1ccccc1
85 to 87.5 °C

# return recorded melting point for entry CC1(C)C(=O)N(c2ccc(C#N)c(C(F)(F)F)c2)C(=O)N1CCCCO
102 to 103 °C

Using the record for COc1ccc(CCC(=O)c2cccnc2Oc2ccc(F)cc2)cc1 , state its measured melting point.
73 to 74 °C

Let me know recorded melting point for O=C(Cc1ccccc1)N1CC2CCC(C1)O2 , thanks.
106 °C

Quote melting point reported for O=C1NCCc2c1c1cccc3c1n2CCC3 please.
254 to 256 °C

###

Provide the recorded melting point for the entries that follow.

Provide measured melting point value, entry: Cc1ncc(CSC(=O)c2cccc(C(=O)SCc3cnc(C)c(O)c3CO)c2)c(CO)c1O
185 to 187 °C

Annotate the compound FC(F)(F)c1cc(CO[C@@H]2CCCN(Cc3nc4ccccc4o3)[C@@H]2c2ccccc2)cc(C(F)(F)F)c1 (relative stereo) with its measured melting point.
95 to 97 °C

Give me measured melting point, please, for this compound: O=c1[nH]c2sc(I)nc2c2ccccc12
> 250 °C

###

Provide the recorded melting point for the entries that follow.

Give the reported value of melting point for this record: COc1ccc(O)c(C2C(=O)N(Cc3ccc(C(F)(F)F)o3)c3cccc(Cl)c32)n1 (stereo not given)
151 to 152 °C

Give melting point for CCn1nc2ccc(Cl)nn2c1=O
150 to 152 °C

Answer with reported melting point of COc1ccc(C(CCCCl)=NNC(N)=S)cc1
137 to 140 °C

Provide only the value of recorded melting point for CSc1ccc([N+](=O)[O-])nc1
165 to 167 °C

Hello, please tell me recorded melting point for this one: CS(=O)(=O)c1ccc(/C(=C\C2CCCCC2)C(=O)O)cc1C(F)(F)F
62 to 64 °C

For the molecule CCCc1c(OCc2ccc(C(=O)O)cc2[N+](=O)[O-])ccc(C(C)=O)c1O , give its measured melting point value.
226 to 228 °C

Please give the documented melting point of Cc1cc(NC(=O)C2=C(O)c3ccc4ccccc4c3S(=O)(=O)N2C)sn1
268 °C

Determine from records and report melting point for NC(=O)c1ccc(-c2cccc3cc(Cc4cc(F)cc(Cl)c4)sc23)cc1
202 to 203 °C

Find the measured melting point of c1ccc(C23CC(C2)C3)cc1 and report it.
64 to 65 °C

Dear colleague, please send me the reported melting point for COC(=O)[C@@H]1C(=O)c2cc(OCc3ccccc3)ccc2[C@H]1c1ccc2c(c1)OCO2 (racemic) when you can.
148 to 150 °C

Identify measured melting point associated with CS(=O)(=O)c1ccc(-c2cnn(Cc3ccc([N+](=O)[O-])cc3)c(=O)c2-c2ccc(F)cc2)cc1
183 to 184 °C

Identify melting point associated with the molecule CC(=O)Nc1cc(Cl)c(Cl)cc1NC(=O)Nc1cc(C(F)(F)F)ccc1Cl
262 to 264 °C

Supply recorded melting point for CCc1nc(-c2ccco2)c2ncn(Cc3ccc(OC)cc3)c2n1 here.
119 to 120 °C

Given the molecule C#CCn1c(-c2cc(Cl)nc(Cl)c2)nc(O)c(OC)c1=O , write its reported melting point.
227 to 228 °C

Could you please provide reported melting point for COc1ccc(-c2cc(=O)n(Cc3c(Cl)cc(Cl)cc3Cl)nc2-c2ccc(OC)cc2)cc1 ? Thanks!
142 to 143 °C

Give the reported value of melting point for this record: CN1CCCCC1CCc1ccccc1NC(=O)c1ccccc1C(=O)O (stereo not given)
171 to 172 °C

Read the entry c1cc2cc[nH]c2cn1 and write its reported melting point.
132 to 134 °C

Identify measured melting point corresponding to Nc1nc(C(F)(F)F)nc2c1ncn2C1OC(CO)C(O)C1O (stereo not given)
173 to 175 °C

Query melting point for O=C(CCO)N1c2ccccc2CCC1CN1CCN(c2cccc3[nH]ccc23)CC1 (stereo not given)
58 to 61 °C

Note melting point for the molecule shown: CNC(=O)Nc1ccc2[nH]cc(CCN)c2c1
188 to 190 °C

###

Property name: melting point

Answer with the recorded melting point of CC1CC=C(N(C)c2ccccc2)c2ncc(C(=O)O)c(=O)n21 (stereo not drawn) only.
170 to 171 °C

Answer with the recorded melting point for the compound listed here: CC(C)(C)NCC(O)COC(=O)c1ccc(OCc2ccccc2)c(OCc2ccccc2)c1 (stereo not drawn)
85 to 86 °C

Consider the compound CC(CF)(CF)C1=NC(c2ccc(C(C)(C)C)cc2)CO1 (stereo not drawn) . State its measured melting point.
62 to 63 °C

###

I'd be grateful if you could share measured melting point for these entries.

Answer with the recorded melting point of CCCCCCCCCCCCCCCCCCS(=O)c1cc2ccccc2cc1OC(C)=O (centres undefined) only.
91 to 93 °C

In one line, give reported melting point of the entry CC(=O)c1cccc(OC2SCC(O)C(O)C2O)c1 (centres undefined) .
166 to 174 °C

State its melting point: COc1cc2c(cc1C(F)(F)F)N(C(=O)N(c1cccc(C)c1)c1ncon1)CC2
203 to 204 °C

Annotate the molecule CCN(CC)C(=O)Nc1c(C)c(C)c2c(c1C)C(c1ccc(C(C)C)cc1)CO2 (centres undefined) with its measured melting point.
79 to 81 °C

Provide melting point value for the following molecule: COc1ccc2c(c1)c(Cc1cc(=O)n(-c3cnc4ccccc4n3)[nH]1)c(C)n2C(=O)c1ccc(Cl)cc1
231 to 233 °C

// Input: COc1ccc(C(=O)NCc2cccc3c2CN(C2CCC(=O)NC2=O)C3=O)cc1 (centres undefined) . Output its melting point only.
289 to 291 °C

Provide measured melting point value, entry: COc1cc2ccc(S(=O)(=O)Cl)cc2cc1OC
128 to 130 °C

Look up and state reported melting point for COc1ccc(C(=O)c2ccccc2[N+](=O)[O-])cn1
94 to 95 °C

Please give measured melting point of the following entry: Fc1cccc(F)c1-c1nc(/C=C/c2ccc(C3CCCCC3)cc2)no1
86 to 87 °C

Entry CCC(=O)Nc1ccc(OCc2nc(Cl)ccc2Cl)cc1 needs its melting point filled in; supply it.
169 to 171 °C

Fill in reported melting point for this entry: COC(=O)N1C(C)=NC(C)=C(C(=O)NCCCN2CCC(C(=O)OC)(c3ccccc3)CC2)C1c1ccc(F)c(F)c1 (centres undefined)
55 to 57 °C

Tell me melting point reported for Cc1cc(F)ccc1C1(c2ccc(S(C)(=O)=O)cc2C)CSC=C1c1ccc(S(C)(=O)=O)cc1 (centres undefined)
158 to 160 °C

Identify measured melting point corresponding to CC1CCC(=NNc2ccccc2)c2ncc(Br)c(=O)n21 (centres undefined)
190 to 192 °C

Return melting point (reported value) for this molecule: CCOC(=O)CCc1cn(Cc2ccc(OCc3cn4c(Cl)cccc4n3)cc2)nc1OCC
69 to 70 °C

Fill in reported melting point for this entry: Cc1ccc(S(=O)(=O)C(=CNc2ccc(Br)cn2)C(=O)c2ccccc2)cc1
205 °C

Provide only the value of recorded melting point for CC(C)(C)c1cc(C(N)=O)cc(C(C)(C)C)c1O
263 to 265 °C

Identify melting point associated with the molecule CCCc1c(OCCCOc2ccc(NC(=O)C(=O)O)cc2OC)ccc(C(C)=O)c1O
125 to 127 °C

For the molecule CSc1ccc(-c2coc3ncc(-c4nnc(C)o4)cc23)cc1 , give its measured melting point value.
209 to 210 °C

Tell me melting point reported for Cc1c2cccc(-c3cccc(C(=O)NCCC#N)c3)c2nn1Cc1cccc(C(F)(F)F)c1
196 to 197 °C

Give the value of melting point reported for the following: O=c1cc(-c2ccc(O)cc2)oc2ccc(CO)cc12
246 to 247 °C

Quickly give me recorded melting point for CC(C)NCC(O)COc1ccc2c(c1)OC(C)CC2 (centres undefined)
79 to 81 °C

State its melting point: O=C1C2CC3CC1CC(c1cc(Br)ccc1OCc1ccccc1)(C3)C2
163 to 165 °C

Determine from records and report melting point for Nc1cc2c(Nc3ccc(OCc4ccccn4)c(Cl)c3)ncnc2cn1
247 to 250 °C

Supply reported melting point belonging to this molecule: CCOC(=O)Cn1c2c(c3cc(Cl)c(Cl)cc31)CCN(C(=O)OC(C)(C)C)CC2
138 to 140 °C

Complete the entry with melting point for CC(=O)n1nc(-c2ccc(Cl)cc2)nc1C
132 to 133 °C

Give me measured melting point, please, for this molecule: CCn1cc(C(=O)O)c(=O)c2cc(F)c(N3CCN(C)C(c4ccco4)C3)cc21 (centres undefined)
209 to 212 °C

Recall and state the measured melting point for Cc1cc(=O)oc2cccc(SC(=O)N(C)C)c12 .
129 °C

Give melting point for the following molecule: N#Cc1ccc(OCc2ccnnc2)cc1OC(C(=O)O)c1ccccc1Cl (racemic)
203 to 205 °C

# return recorded melting point for input C=CCn1nc(-c2sc(C(=O)NC(C)C)nc2-c2ccccc2)ccc1=O
166 to 167 °C

Quick one: give measured melting point for CCOC(=O)c1cc2cc(OCCOC)cc(NS(=O)(=O)c3cccs3)c2[nH]1
106 to 107 °C

Provide one value: measured melting point of CCc1nc2c([nH]1)C(=O)N1CCN=C1N2Cc1ccc(Cl)cc1
278 to 279 °C

Give the measured melting point for COC(=O)c1ccc2cc(-c3ccc(CO)c(C45CC6CC(CC(C6)C4)C5)c3)ccc2c1
212 °C

Consider the molecule CC1(C)CCC(=O)Nc2cc(Nc3ncc4cc5ccccc5n4n3)ccc21 and give its recorded melting point.
230 to 240 °C

Output measured melting point for this item: CCOC(=O)Cc1nc(-c2ccccc2)oc1-c1ccsc1
90 to 91 °C
